# merged literature set: log10(IC50) with microsomal triglyceride transfer protein (MTP) (Mesocricetus auratus)
Each number you see is log10 of IC50, and the unit inside the log is nM.

COC(=O)[C@@H](NC(=O)N1CCC(Oc2cccc(NC(=O)c3cccc(C)c3-c3ccc(OC(F)(F)F)cc3)c2)CC1)C(C)C	2.74

Query for microsomal triglyceride transfer protein (MTP) (Mesocricetus auratus): what log10(IC50) does the record show for CCCCS(=O)(=O)N1CCC(Oc2cccc(NC(=O)c3cccc(C)c3-c3ccc(OC(F)(F)F)cc3)c2)CC1 ?
1.65

Query for microsomal triglyceride transfer protein (MTP) (Mesocricetus auratus): what log10(IC50) does the record show for COc1ccc(C(=O)N2CCC(Oc3cccc(NC(=O)c4ccccc4-c4ccc(OC(F)(F)F)cc4)c3)CC2)cc1OC ?
2.47

Query for microsomal triglyceride transfer protein (MTP) (Mesocricetus auratus): what log10(IC50) does the record show for CCN(C(=O)c1csc(C2CCN(C(=O)c3ccccc3-c3ccc(C(F)(F)F)cc3)CC2)n1)C(C)C(=O)c1ccccc1 (stereo not shown) ?
1.76

Query for microsomal triglyceride transfer protein (MTP) (Mesocricetus auratus): what log10(IC50) does the record show for COc1cccc(NC(=O)N2CCC(Oc3cccc(NC(=O)c4cccc(C)c4-c4ccc(OC(F)(F)F)cc4)c3)CC2)c1 ?
2.42

Query for microsomal triglyceride transfer protein (MTP) (Mesocricetus auratus): what log10(IC50) does the record show for Cc1cccc(C(=O)Nc2cccc(OC3CCN(Cc4ccc(N(C)C)cc4)CC3)c2)c1-c1ccc(OC(F)(F)F)cc1 ?
2.58

Query for microsomal triglyceride transfer protein (MTP) (Mesocricetus auratus): what log10(IC50) does the record show for O=C(NC1CCN(Cc2cccnc2)CC1)c1ccccc1-c1ccc(C(F)(F)F)cc1 ?
2.51

* * *

# merged literature set: IC50 with microsomal triglyceride transfer protein (MTP) (Mesocricetus auratus, UniProt P55158)
Please state the figure in nM; there is no need to write the unit.

Study these solved cases before continuing.
CC(C)(C)C(=O)N1CCC(Oc2cccc(NC(=O)c3ccccc3-c3ccc(OC(F)(F)F)cc3)c2)CC1	176
Cc1cccc(C(=O)Nc2cccc(OC3CCN(S(=O)(=O)C(C)C)CC3)c2)c1-c1ccc(OC(F)(F)F)cc1	114
Cc1cccc(C(=O)Nc2cccc(OC3CCN(C(=O)OCC(C)C)CC3)c2)c1-c1ccc(OC(F)(F)F)cc1	55.5
Cc1cccc(C(=O)Nc2cccc(OC3CCN(C(=O)OC(C)(C)C)CC3)c2)c1-c1ccc(OC(F)(F)F)cc1	421
Cc1cccc(C(=O)Nc2ccc3c(c2)OC(F)(F)O3)c1-c1ccc(CCOCc2ccccc2)cc1	61

# lookup: IC50 of COC(=O)c1cccc(NC(=O)N2CCC(Oc3cccc(NC(=O)c4cccc(C)c4-c4ccc(OC(F)(F)F)cc4)c3)CC2)c1
201

# lookup: IC50 of O=C(NCc1ccccc1)C(CCCCn1cc(-c2ccccc2)c2cccnc21)C1CCCCCC1 (stereo not shown)
175

* * *

# merged literature set: pIC50 with microsomal triglyceride transfer protein (MTP) (Mesocricetus auratus, UniProt P55158)
Note: pIC50 values are expressed as the negative base-10 logarithm of concentration in M.

Study these solved cases before continuing.
Cc1cccc(C(=O)Nc2cccc(OC3CCN(C(=O)Nc4ccccc4OC(F)(F)F)CC3)c2)c1-c1ccc(OC(F)(F)F)cc1	6.80
COc1ccc(CNC(=O)N2CCC(Oc3cccc(NC(=O)c4cccc(C)c4-c4ccc(OC(F)(F)F)cc4)c3)CC2)cc1	6.71
COCCOC(=O)N1CCC(Oc2cccc(NC(=O)c3cccc(C)c3-c3ccc(OC(F)(F)F)cc3)c2)CC1	7.48
O=C(Nc1ccc2c(c1)OC(F)(F)O2)c1ccccc1-c1ccc(OC(F)(F)F)cc1	6.66
Cc1cccc(C(=O)Nc2cccc(OC3CCN(Cc4ccccc4)CC3)c2)c1-c1ccc(OC(F)(F)F)cc1	7.13

Query for microsomal triglyceride transfer protein (MTP) (Mesocricetus auratus, UniProt P55158): what pIC50 does the record show for Cc1cccc(C(=O)Nc2cccc(OC3CCN(C(=O)Nc4ccc5c(c4)OCO5)CC3)c2)c1-c1ccc(OC(F)(F)F)cc1 ?
6.84

Query for microsomal triglyceride transfer protein (MTP) (Mesocricetus auratus, UniProt P55158): what pIC50 does the record show for CCN(C(=O)c1csc(C2CCN(C(=O)c3ccccc3-c3ccc(C(F)(F)F)cc3)CC2)n1)C(C#N)c1ccccc1 (stereo not shown) ?
7.24

Query for microsomal triglyceride transfer protein (MTP) (Mesocricetus auratus, UniProt P55158): what pIC50 does the record show for Cc1cccc(C(=O)Nc2cccc(OC3CCN(S(=O)(=O)Cc4ccccc4)CC3)c2)c1-c1ccc(OC(F)(F)F)cc1 ?
7.37

Query for microsomal triglyceride transfer protein (MTP) (Mesocricetus auratus, UniProt P55158): what pIC50 does the record show for Cc1ccc(NC(=O)N2CCC(Oc3cccc(NC(=O)c4cccc(C)c4-c4ccc(OC(F)(F)F)cc4)c3)CC2)cc1 ?
6.57

Query for microsomal triglyceride transfer protein (MTP) (Mesocricetus auratus, UniProt P55158): what pIC50 does the record show for Cc1cccc(C(=O)Nc2cccc(OC3CCN(C(=O)NC4CCCC4)CC3)c2)c1-c1ccc(OC(F)(F)F)cc1 ?
6.73

Query for microsomal triglyceride transfer protein (MTP) (Mesocricetus auratus, UniProt P55158): what pIC50 does the record show for CCc1ccc(-c2cccc(C)c2C(=O)Nc2ccc3c(c2)OC(F)(F)O3)cc1 ?
6.57

Query for microsomal triglyceride transfer protein (MTP) (Mesocricetus auratus, UniProt P55158): what pIC50 does the record show for Cc1cccc(CN2CCC(Oc3cccc(NC(=O)c4cccc(C)c4-c4ccc(OC(F)(F)F)cc4)c3)CC2)n1 ?
6.20

Query for microsomal triglyceride transfer protein (MTP) (Mesocricetus auratus, UniProt P55158): what pIC50 does the record show for COC(=O)CC(=O)N1CCC(Oc2cccc(NC(=O)c3ccccc3-c3ccc(OC(F)(F)F)cc3)c2)CC1 ?
6.60

Query for microsomal triglyceride transfer protein (MTP) (Mesocricetus auratus, UniProt P55158): what pIC50 does the record show for O=C(Nc1ccc2c(c1)OC(F)(F)O2)c1cccc(Cl)c1-c1ccc(OC(F)(F)F)cc1 ?
6.65
